experimental.system: 5-hydroxytryptamine receptor 2B (Homo sapiens)
Sequence (P41595 whole entry): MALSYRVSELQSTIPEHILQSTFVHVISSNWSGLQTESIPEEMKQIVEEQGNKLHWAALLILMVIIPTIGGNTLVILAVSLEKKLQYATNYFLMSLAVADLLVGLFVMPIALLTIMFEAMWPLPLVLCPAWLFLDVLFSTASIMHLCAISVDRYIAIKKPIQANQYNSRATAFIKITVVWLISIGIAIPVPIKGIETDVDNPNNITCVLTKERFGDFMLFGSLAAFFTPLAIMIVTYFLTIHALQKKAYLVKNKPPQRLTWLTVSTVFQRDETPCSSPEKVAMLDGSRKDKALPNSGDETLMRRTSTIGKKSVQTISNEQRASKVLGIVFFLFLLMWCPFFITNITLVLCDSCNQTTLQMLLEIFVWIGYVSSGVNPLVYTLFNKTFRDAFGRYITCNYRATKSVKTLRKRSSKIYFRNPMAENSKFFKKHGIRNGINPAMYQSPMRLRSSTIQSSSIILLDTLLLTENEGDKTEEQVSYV
protocol.summary: GPCRScan assay: inhibition of 5-HT2B
Parameters: radioligand conc. used [nm] 1.0 – 2.0, parental cells stable HEK
condition: read-out: Ki
observation.type: pKi
Scale: negative log10 of molar concentration, which is what pKi denotes.

Form: Entry = Cc1ccc2nc(CNCCCOc3ccccc3)cc(O)c2c1 [UCSF924] | System = 5-hydroxytryptamine receptor 2B (Homo sapiens) | pKi = ____
6.63

###

experimental.system: Sigma intracellular receptor 2 (Homo sapiens)
Sequence (Q5BJF2 whole entry): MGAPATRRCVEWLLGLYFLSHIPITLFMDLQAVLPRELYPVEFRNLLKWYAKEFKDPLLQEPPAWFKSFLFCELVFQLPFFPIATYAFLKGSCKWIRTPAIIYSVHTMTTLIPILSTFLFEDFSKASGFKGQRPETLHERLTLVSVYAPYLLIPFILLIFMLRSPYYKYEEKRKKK
protocol.summary: GPCRScan assay: inhibition of Sigma 2
Set-up: radioligand conc. used [nm] 5.0, parental cells HEKT
observation.type: pKi
pKi here: minus log base 10 of the concentration, concentration in moles per litre.

Fill in: pKi of Cc1ccc2nc(CNCCCOc3ccccc3)cc(O)c2c1 [UCSF924] is ___
5.72

###

experimental.system: Kappa-type opioid receptor (Homo sapiens)
Sequence (P41145 whole entry): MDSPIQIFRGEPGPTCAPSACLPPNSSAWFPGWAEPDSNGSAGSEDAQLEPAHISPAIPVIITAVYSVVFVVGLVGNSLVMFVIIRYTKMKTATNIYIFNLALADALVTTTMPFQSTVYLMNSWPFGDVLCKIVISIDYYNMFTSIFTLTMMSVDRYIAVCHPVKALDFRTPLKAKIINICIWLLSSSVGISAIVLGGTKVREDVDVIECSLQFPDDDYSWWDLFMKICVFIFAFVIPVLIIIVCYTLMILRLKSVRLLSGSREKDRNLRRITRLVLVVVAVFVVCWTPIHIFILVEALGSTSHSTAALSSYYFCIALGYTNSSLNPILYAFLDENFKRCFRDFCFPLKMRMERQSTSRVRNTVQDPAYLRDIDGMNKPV
protocol.summary: GPCRScan assay: inhibition of KOR
Set-up: radioligand conc. used [nm] 0.6 – 1.2, parental cells stable HEK
condition: read-out: Ki
observation.type: Ki (µM)
Write it as a number; the unit µM goes unstated.

Given the compound Cc1ccc2nc(CNCCCOc3ccccc3)cc(O)c2c1 , what is its reported Ki?
2.31

###

experimental.system: Histamine H1 receptor (Homo sapiens, UniProt P35367)
Sequence (P35367 whole entry): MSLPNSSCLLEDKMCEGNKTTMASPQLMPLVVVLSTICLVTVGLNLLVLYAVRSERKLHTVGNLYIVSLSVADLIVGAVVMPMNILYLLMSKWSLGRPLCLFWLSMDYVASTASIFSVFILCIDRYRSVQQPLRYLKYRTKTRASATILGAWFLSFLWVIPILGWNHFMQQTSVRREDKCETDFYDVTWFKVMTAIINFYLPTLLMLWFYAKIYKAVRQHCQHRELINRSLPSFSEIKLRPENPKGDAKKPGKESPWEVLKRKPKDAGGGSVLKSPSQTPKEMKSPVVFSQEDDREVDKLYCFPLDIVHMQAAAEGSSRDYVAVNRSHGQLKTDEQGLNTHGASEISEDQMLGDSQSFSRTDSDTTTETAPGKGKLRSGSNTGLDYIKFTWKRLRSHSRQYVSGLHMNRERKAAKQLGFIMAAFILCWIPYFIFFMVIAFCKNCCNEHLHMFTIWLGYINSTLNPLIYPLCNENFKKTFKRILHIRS
protocol.summary: GPCRScan assay: inhibition of H1
Set-up: radioligand conc. used [nm] 0.6 – 2.0, parental cells stable HEK
condition: read-out: Ki
observation.type: Ki
Reply with the number and its unit after it.

Reported Ki for Histamine H1 receptor (Homo sapiens, UniProt P35367), given Cc1ccc2nc(CNCCCOc3ccccc3)cc(O)c2c1 ?
4.55 µM

###

experimental.system: UniProt P21728
Sequence (P21728 whole entry): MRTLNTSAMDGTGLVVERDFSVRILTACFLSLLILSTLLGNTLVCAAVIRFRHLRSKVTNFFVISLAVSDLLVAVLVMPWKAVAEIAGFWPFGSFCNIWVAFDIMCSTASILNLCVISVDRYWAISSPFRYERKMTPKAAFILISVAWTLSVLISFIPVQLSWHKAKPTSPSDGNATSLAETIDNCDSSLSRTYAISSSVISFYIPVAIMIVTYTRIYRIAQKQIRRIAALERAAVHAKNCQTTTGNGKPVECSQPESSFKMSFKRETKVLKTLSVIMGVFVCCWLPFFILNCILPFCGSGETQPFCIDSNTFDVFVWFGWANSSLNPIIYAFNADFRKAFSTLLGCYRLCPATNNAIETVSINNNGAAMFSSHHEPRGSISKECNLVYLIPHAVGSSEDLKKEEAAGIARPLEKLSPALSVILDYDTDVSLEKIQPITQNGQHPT
protocol.summary: GPCRScan assay: inhibition of D1
observation.type: Ki (µM)
Express the result in µM but write the number alone.

Field request: Ki | item: Cc1ccc2nc(CNCCCOc3ccccc3)cc(O)c2c1 [UCSF924]
3.42

###

experimental.system: Histamine H2 receptor (Homo sapiens, UniProt P25021)
Sequence (P25021 whole entry): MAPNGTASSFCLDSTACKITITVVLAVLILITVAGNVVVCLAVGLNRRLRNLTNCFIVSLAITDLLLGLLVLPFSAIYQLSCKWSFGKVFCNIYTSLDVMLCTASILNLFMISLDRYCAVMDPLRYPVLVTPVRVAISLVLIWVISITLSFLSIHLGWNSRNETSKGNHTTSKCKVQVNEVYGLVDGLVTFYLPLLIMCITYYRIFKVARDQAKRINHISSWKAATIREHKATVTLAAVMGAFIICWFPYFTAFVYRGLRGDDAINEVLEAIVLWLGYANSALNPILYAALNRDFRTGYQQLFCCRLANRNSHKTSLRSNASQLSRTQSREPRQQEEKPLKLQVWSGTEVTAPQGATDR
protocol.summary: GPCRScan assay: inhibition of H2
Parameters: radioligand conc. used [nm] 0.02 – 0.05, parental cells Stable HEK
condition: read-out: Ki
observation.type: pKi
Hey, just a heads up that pKi is the negative log base 10 of the concentration in molar.

Given the molecule Cc1ccc2nc(CNCCCOc3ccccc3)cc(O)c2c1 [UCSF924] , what is its reported pKi?
5.72

###

experimental.system: 5-hydroxytryptamine receptor 2C (Homo sapiens)
Sequence (P28335 whole entry): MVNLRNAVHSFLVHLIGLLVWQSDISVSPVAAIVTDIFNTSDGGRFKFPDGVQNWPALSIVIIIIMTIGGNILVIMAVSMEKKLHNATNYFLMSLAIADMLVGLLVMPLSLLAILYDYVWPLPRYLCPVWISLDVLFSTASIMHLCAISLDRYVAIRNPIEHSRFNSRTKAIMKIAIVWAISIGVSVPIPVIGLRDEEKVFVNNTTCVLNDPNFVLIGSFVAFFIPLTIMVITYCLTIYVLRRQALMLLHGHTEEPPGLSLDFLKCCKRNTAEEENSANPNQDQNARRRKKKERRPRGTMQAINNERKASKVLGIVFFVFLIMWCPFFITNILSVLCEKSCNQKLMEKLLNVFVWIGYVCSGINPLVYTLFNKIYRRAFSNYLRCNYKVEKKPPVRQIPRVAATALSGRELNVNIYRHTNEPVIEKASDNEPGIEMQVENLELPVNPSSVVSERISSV
observation.type: pKi
Please express pKi as -log10 of the molar concentration.

What pKi appears in the records for this compound with 5-hydroxytryptamine receptor 2C (Homo sapiens)? Cc1ccc2nc(CNCCCOc3ccccc3)cc(O)c2c1 [UCSF924]
5.26

###

experimental.system: Muscarinic acetylcholine receptor M2 (Homo sapiens, UniProt P08172)
Sequence (P08172 whole entry): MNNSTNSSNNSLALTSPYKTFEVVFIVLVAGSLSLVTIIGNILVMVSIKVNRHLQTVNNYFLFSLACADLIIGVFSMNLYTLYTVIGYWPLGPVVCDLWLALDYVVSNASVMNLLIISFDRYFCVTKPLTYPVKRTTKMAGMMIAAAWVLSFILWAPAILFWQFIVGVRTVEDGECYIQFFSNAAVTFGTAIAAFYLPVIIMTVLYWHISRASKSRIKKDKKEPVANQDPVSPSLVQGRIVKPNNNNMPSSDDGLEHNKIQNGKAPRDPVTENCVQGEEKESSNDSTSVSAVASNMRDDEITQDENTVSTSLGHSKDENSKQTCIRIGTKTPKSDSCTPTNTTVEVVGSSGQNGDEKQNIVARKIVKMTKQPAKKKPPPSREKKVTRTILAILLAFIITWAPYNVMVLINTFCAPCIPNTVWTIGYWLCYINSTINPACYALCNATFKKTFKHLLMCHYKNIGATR
observation.type: pKi
# pKi is unitless: minus log10 of the molar concentration; print number only

Name the reported pKi value associated with the molecule Cc1ccc2nc(CNCCCOc3ccccc3)cc(O)c2c1
5.35

###

experimental.system: 5-hydroxytryptamine receptor 1A (Homo sapiens, UniProt P08908)
protocol.summary: GPCRScan assay: inhibition of 5-HT1A
Parameters: radioligand conc. used [nm] 0.5 – 1.0, parental cells stable CHO
condition: read-out: Ki
observation.type: pKi
pKi field: float, defined as -log10 of concentration (mol/L).

Bench note: what pKi did Cc1ccc2nc(CNCCCOc3ccccc3)cc(O)c2c1 [UCSF924] show?
6.65

###

experimental.system: 5-hydroxytryptamine receptor 3A (Homo sapiens)
Sequence (P46098 whole entry): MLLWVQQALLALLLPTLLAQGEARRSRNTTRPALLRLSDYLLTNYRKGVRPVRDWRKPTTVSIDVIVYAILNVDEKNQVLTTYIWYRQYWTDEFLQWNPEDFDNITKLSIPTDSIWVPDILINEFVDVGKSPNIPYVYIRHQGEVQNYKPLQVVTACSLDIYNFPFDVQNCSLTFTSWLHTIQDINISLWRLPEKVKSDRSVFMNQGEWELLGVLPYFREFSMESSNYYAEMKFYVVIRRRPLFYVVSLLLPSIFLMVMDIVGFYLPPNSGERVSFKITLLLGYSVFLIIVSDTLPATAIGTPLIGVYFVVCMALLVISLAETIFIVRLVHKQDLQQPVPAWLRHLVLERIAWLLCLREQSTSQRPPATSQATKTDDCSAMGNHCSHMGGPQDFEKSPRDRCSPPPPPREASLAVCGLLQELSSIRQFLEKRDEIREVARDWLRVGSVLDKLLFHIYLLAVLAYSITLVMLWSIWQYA
protocol.summary: GPCRScan assay: inhibition of 5-HT3
Set-up: radioligand conc. used [nm] 1.0 – 2.0, parental cells HEKT
condition: read-out: Ki
observation.type: Ki
Note to self: number, then unit, no commentary.

Looking for the measured Ki of Cc1ccc2nc(CNCCCOc3ccccc3)cc(O)c2c1 [UCSF924] , can you help?
3.99 µM

###

experimental.system: Glutamate [NMDA] receptor
protocol.summary: GPCRScan assay: inhibition of NMDA
observation.type: pKi
For clarity, pKi is expressed as the negative log10 of concentration in mol/L.

// query pKi value for entry Cc1ccc2nc(CNCCCOc3ccccc3)cc(O)c2c1 [UCSF924]
6.00

###

Sequence of the target: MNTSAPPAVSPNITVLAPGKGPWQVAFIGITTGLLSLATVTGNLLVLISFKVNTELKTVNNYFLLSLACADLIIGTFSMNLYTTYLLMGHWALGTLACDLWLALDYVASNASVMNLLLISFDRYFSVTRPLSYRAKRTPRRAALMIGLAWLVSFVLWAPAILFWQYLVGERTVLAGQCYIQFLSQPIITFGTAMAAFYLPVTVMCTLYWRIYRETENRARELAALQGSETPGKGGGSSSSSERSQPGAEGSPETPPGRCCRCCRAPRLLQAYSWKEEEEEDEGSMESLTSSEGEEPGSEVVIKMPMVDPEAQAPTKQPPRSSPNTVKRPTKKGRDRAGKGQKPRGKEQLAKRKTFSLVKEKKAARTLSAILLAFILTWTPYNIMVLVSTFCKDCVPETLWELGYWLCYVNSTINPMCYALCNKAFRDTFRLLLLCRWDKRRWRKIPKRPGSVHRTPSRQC
observation.type: pKi
When answering, recall that pKi equals minus log10 of the concentration in mol/L, and write that number alone.

Tell me the measured pKi of Cc1ccc2nc(CNCCCOc3ccccc3)cc(O)c2c1 , please.
5.39

###

experimental.system: Alpha-2B adrenergic receptor (Homo sapiens)
Sequence (P18089 whole entry): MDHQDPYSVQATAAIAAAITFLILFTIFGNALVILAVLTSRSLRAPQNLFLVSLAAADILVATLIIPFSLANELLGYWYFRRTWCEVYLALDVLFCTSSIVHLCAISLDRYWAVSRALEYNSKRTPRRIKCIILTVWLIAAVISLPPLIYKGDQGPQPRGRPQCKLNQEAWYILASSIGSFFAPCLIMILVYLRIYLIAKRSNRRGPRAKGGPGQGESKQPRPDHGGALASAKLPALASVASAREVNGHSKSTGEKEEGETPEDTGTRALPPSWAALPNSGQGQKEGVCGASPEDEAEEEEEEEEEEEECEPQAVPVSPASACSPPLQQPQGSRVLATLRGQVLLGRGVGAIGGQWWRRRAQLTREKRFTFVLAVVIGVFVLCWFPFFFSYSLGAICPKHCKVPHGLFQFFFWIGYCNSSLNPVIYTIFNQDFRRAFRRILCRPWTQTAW
protocol.summary: GPCRScan assay: inhibition of Alpha2B
Parameters: radioligand conc. used [nm] 1.5 – 2.0, parental cells HEKT
condition: read-out: Ki
observation.type: Ki

Find the measured Ki: item Cc1ccc2nc(CNCCCOc3ccccc3)cc(O)c2c1 [UCSF924] , target or system Alpha-2B adrenergic receptor (Homo sapiens).
3.04 µM

###

experimental.system: 5-hydroxytryptamine receptor 1D (Homo sapiens, UniProt P28221)
protocol.summary: GPCRScan assay: inhibition of 5-HT1D
Design: radioligand conc. used [nm] 1.0 – 2.0, parental cells HEKT
condition: read-out: Ki
observation.type: Ki (µM)
# number only, unit µM dropped from output

Ki lookup needed for Cc1ccc2nc(CNCCCOc3ccccc3)cc(O)c2c1 [UCSF924] , thanks.
3.25

###

experimental.system: Sodium-dependent dopamine transporter (Homo sapiens)
Sequence (Q01959 whole entry): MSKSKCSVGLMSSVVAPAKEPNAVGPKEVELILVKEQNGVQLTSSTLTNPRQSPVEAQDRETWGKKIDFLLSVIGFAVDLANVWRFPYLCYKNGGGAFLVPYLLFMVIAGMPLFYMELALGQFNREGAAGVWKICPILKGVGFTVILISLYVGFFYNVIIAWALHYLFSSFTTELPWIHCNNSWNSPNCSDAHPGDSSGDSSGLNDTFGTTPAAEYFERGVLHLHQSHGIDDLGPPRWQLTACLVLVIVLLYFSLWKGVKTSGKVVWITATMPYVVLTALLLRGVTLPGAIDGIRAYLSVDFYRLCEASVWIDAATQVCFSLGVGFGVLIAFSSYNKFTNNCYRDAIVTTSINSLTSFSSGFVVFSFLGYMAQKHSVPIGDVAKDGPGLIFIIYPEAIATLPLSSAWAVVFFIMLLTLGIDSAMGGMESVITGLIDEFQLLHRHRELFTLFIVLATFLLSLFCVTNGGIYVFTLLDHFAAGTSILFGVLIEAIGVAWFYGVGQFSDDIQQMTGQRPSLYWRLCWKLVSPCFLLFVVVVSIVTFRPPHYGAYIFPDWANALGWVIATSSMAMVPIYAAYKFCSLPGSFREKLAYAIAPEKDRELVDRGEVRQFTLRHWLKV
protocol.summary: GPCRScan assay: inhibition of DAT
Set-up: radioligand conc. used [nm] 3.6 – 16.0, parental cells stable HEK
condition: read-out: Ki
observation.type: pKi
Please treat pKi as minus the base-10 logarithm of the molar concentration.

Which value of pKi has been reported for Cc1ccc2nc(CNCCCOc3ccccc3)cc(O)c2c1 [UCSF924] in the records?
5.67
